Assay: in vivo
Conditions: male, Sprague-Dawley, rat, iv, 24 mg/kg
Where a SMILES comes first, the peptide text is derived from it. [ ]: non-standard residue; d: D form. dNle = CCCC[C@@H](N)C(=O)O; Ahx = NCCCCCC(=O)O
measuredEndpoint: AUC(0-inf) (ng·h/mL)
Give just the number in ng·h/mL; leave the unit off.

Fill blank: measured AUC(0-inf) of the compound CCCC[C@@H](N)C(=O)N[C@@H](Cc1ccc(O)cc1)C(=O)N[C@H](C(=O)NCCCCCC(N)=O)[C@@H](C)CC (H-[dNle]YI[Ahx]-NH2) is ____.
11500

====

Experiment: in vivo
Settings: male, Sprague-Dawley, rat, iv, 24 mg/kg
Where a SMILES comes first, the peptide text is derived from it. [ ]: non-standard residue; d: D form. dNle = CCCC[C@@H](N)C(=O)O; Ahx = NCCCCCC(=O)O
measuredEndpoint: Vd
Remember to quote the unit after the number.

For the molecule CCCC[C@@H](N)C(=O)N[C@@H](Cc1ccc(O)cc1)C(=O)N[C@H](C(=O)NCCCCCC(N)=O)[C@@H](C)CC (H-[dNle]YI[Ahx]-NH2) , what Vd is on record?
104 L/kg
